- Test system: CAL-85-1
- assay.info: drug sensitivity score (DSS), CellTiter-Glo (DSS (AUC-based score)); higher = stronger drug effect (viability inhibition or cytotoxicity); extreme values may be limits of the assay
- condition.details: incubation time: 72 h
Please provide measured drug sensitivity score for the entries that follow.
Give bare numbers.

Example cases with answers are listed next.
{"columns": ["smiles.record", "subject.of.test", "recorded.result"],
 "data": [
  ["N#CCNC(=O)c1ccc(-c2ccnc(Nc3ccc(N4CCOCC4)cc3)n2)cc1", "CAL-85-1", 4.3],
  ["CCC1=C[C@@H]2CN(C1)Cc1c([nH]c3ccccc13)[C@@](C(=O)OC)(c1cc3c(cc1OC)N(C)[C@H]1[C@@](O)(C(=O)OC)[C@H](OC(C)=O)[C@]4(CC)C=CCN5CC[C@]31[C@@H]54)C2", "CAL-85-1", 19.8]
]}

For "CS(=O)(=O)c1ccc(C2=C(c3ccccc3)C(=O)OC2)cc1" the compound record lists drug sensitivity score as 0
